Hey, just so you know, these numbers are from patent US20180235942A1.

protocol.description: clinical
assay.conditions: both, human, in vivo
assay.readout: bioavailability (%)
The figure you give is taken to be in %; do not add the unit.

Note to self: bioavailability recorded for Oc1noc2c1CCNC2 [gaboxadol] was 92
